Tested on: Listeria monocytogenes (ATCC strain and field strains SS1-SS5)
Conditions: ATCC strain and field strains SS1-SS5, 6 h
Ends that are not written are not given here.
reported_metric: EC50 (nM)
Kindly provide the numeric value in nM only, without the unit symbol.

## Input Consider the substance VRLIVKVRIWRR-NH2 [Bac-amp1, VRLIVKVRIWRR-NH2] and give its recorded EC50.
## Output 550
